Cited source: ChEMBL document CHEMBL5032519

Below, each entry is listed with its recorded half-life.
# method.summary: Half life in human S9 fraction
# Format: ADME, subcellular
# value in min; strip the unit string

Use these answered entries as a reference point.
1. FC(F)(F)c1cc(SCC#Cc2ccc(Cl)cc2)ccn1
43.9
2. CCOc1ccc(C#CCNc2ccnc(C(F)(F)F)c2)cc1F
13
3. FC(F)(F)c1cc(NCC#Cc2ccc(Oc3ccccc3)cc2)ccn1
53
4. Fc1ccc(C#CCNc2ccnc(C(F)(F)F)c2)cc1
61.2
5. Fc1ccc(CCCNc2ccnc(C(F)(F)F)c2)cc1
32.7
6. Nc1cc(NCCCc2ccc(F)cc2)cc(C(F)(F)F)n1
56
7. FC(F)(F)c1cc(NCc2cn(-c3ccc(Oc4ccccc4)cc3)nn2)ccn1
169

Query: Look up half-life: CC(C)Oc1ccc(C#CCNc2ccnc(C(F)(F)F)c2)cc1F
Result: 25.3

###

Below, each entry is listed with its recorded IC50.
# method.summary: Inverse agonist activity at PqsR in Escherichia coli […] by cell-based reporter gene assay
# value in nM; strip the unit string

Use these answered entries as a reference point.
1) FC(F)(F)c1cc(NC/C=C/c2ccc(Cl)cc2)ccn1
479
2) CC(C)Oc1ccc(C#CCNc2ccnc(C(F)(F)F)c2)cc1F
80

Query: Look up IC50: COc1ccc(C#CCNc2ccnc(C(F)(F)F)c2)cc1C
Result: 289

Query: Item: FC(F)(F)c1cc(NCC#Cc2ccc(Oc3ccccc3)cc2)ccn1
Result: 20

Query: Item: CCOc1ccc(C#CCNc2ccnc(C(F)(F)F)c2)cc1Cl
Result: 150

Query: Item: FC(F)(F)c1cc(NC/C=C/c2ccc(Oc3ccccc3)cc2)ccn1
Result: 464

Query: Item: Nc1cc(NCCCc2ccc(F)cc2)cc(C(F)(F)F)n1
Result: 140

Query: Item: CCOc1ccc(C#CCNc2ccnc(C(F)(F)F)c2)cc1
Result: 170

Query: Item: Fc1cccc(C#CCNc2ccnc(C(F)(F)F)c2)c1
Result: 222

Query: Item: FC(F)(F)c1cc(NCC#Cc2ccc(Cl)cc2)ccn1
Result: 281

Query: Item: Fc1ccc(C#CCNc2ccnc(C(F)(F)F)c2)cc1
Result: 141

###

# system: Transcriptional regulator MvfR (Pseudomonas aeruginosa PA14)
# Sequence (A0A072ZLE6 whole entry): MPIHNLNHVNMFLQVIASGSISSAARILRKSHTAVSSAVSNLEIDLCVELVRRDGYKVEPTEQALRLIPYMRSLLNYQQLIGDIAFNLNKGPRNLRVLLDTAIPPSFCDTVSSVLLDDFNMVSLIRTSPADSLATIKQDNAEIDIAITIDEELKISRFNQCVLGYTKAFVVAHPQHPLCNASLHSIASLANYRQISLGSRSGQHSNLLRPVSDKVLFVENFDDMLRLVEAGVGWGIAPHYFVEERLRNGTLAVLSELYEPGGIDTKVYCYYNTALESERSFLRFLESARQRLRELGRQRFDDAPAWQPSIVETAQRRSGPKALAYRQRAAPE
# method.summary: Inverse agonist activity at PqsR in Pseudomonas aeruginosa assessed as reduction in pyocyanin production
Below, each entry is listed with its recorded IC50.
State the value, then name its unit.

Query: Look up IC50: FC(F)(F)c1cc(NCCCc2ccc(Cl)cc2)ccn1
Result: 1.05 µM

Query: Item: FC(F)(F)c1cc(NC/C=C/c2ccc(Oc3ccccc3)cc2)ccn1
Result: 3.83 µM

###

# method.summary: Kinetic solubility of compound
# Format: physicochemical
# measurement.context: read-out: Kinetic_solubility
Hi, to clarify the labels: YES covers solubility kinetic from 40 µM upward, NO covers anything below 40 µM.

Some entries whose results are on file:
1) FC(F)(F)c1cc(NCC#Cc2ccc(Oc3ccccc3)cc2)ccn1
NO
2) Fc1ccc(CCCNc2ccnc(C(F)(F)F)c2)cc1
YES
3) FC(F)(F)c1cc(SCC#Cc2ccc(Cl)cc2)ccn1
YES
4) CCOc1ccc(C#CCNc2ccnc(C(F)(F)F)c2)cc1F
YES
5) Fc1ccc(C#CCNc2ccnc(C(F)(F)F)c2)cc1
YES

Query: hey, is solubility kinetic for this one >= 40 µM? CC(C)Oc1ccc(C#CCNc2ccnc(C(F)(F)F)c2)cc1F
Result: YES

###

Below, each entry is listed with its recorded CC50.
# method.summary: Cytotoxicity against human HepG2 cells
# Type: cell-based
# measurement.context: read-out: LD50 (the source's name)

Use these answered entries as a reference point.
1. Fc1ccc(C#CCNc2ccnc(C(F)(F)F)c2)cc1
> 50 µM
2. FC(F)(F)c1cc(NCC#Cc2ccc(Oc3ccccc3)cc2)ccn1
> 25 µM
3. FC(F)(F)c1cc(SCC#Cc2ccc(Cl)cc2)ccn1
> 100 µM

Now examine the next entry.
Query: Look up CC50: CC(C)Oc1ccc(C#CCNc2ccnc(C(F)(F)F)c2)cc1F
Result: 69.8 µM

###

# system: Transcriptional regulator MvfR (Pseudomonas aeruginosa PA14)
# method.summary: Inverse agonist activity at PqsR in Pseudomonas aeruginosa assessed as reduction in pyocyanin production
pIC50: −log10 of the molar value.
Hi, to clarify the labels: class 1 covers pIC50 from 6 upward, class 0 covers anything below 6.

1. CCOc1ccc(C#CCNc2ccnc(C(F)(F)F)c2)cc1F
class 1
2. CCOc1ccc(C#CCNc2ccnc(C(F)(F)F)c2)cc1
class 1
3. FC(F)(F)c1cc(NCC#Cc2ccc(Oc3ccccc3)cc2)ccn1
class 1
4. Fc1ccc(C#CCNc2ccnc(C(F)(F)F)c2)cc1
class 0
5. CC(C)Oc1ccc(C#CCNc2ccnc(C(F)(F)F)c2)cc1F
class 1

As a next step, examine the compound that follows.
Query: hey, is pIC50 for this one >= 6? Nc1cc(NCCCc2ccc(F)cc2)cc(C(F)(F)F)n1
Result: class 0

###

# method.summary: Cytotoxicity against HEK293 cells
# Type: cell-based
# measurement.context: human, read-out: LD50 (the source's name)
result.type: CC50 (µM)
# value in µM; strip the unit string

Use these answered entries as a reference point.
1) CCOc1ccc(C#CCNc2ccnc(C(F)(F)F)c2)cc1F
56.9
2) Fc1ccc(CCCNc2ccnc(C(F)(F)F)c2)cc1
25
3) CC(C)Oc1ccc(C#CCNc2ccnc(C(F)(F)F)c2)cc1F
61.9

Query: Look up CC50: FC(F)(F)c1cc(NCC#Cc2ccc(Oc3ccccc3)cc2)ccn1
Result: 10

###

# Tested on: Escherichia coli
# method.summary: Inverse agonist activity at PqsR in Escherichia coli […] by measuring remaining activity at 1 uM by cell-based reporter gene assay relative to control
Simple rule here: Activity less than 70% is Fulfilled, otherwise Not fulfilled.

1. COc1cccc(C#CCNc2ccnc(C(F)(F)F)c2)c1
Fulfilled
2. FC(F)(F)c1cc(NCC#Cc2ccc(Cl)cn2)ccn1
Fulfilled
3. Oc1ccc(C#CCNc2ccnc(C(F)(F)F)c2)cc1
Not fulfilled
4. FC(F)(F)c1cc(NCCCc2ccccc2)ccn1
Fulfilled

Query: I wonder whether FC(F)(F)c1cc(NC/C=C/c2ccc(Cl)nc2)ccn1 has Activity below 70%. Can you tell?
Result: Not fulfilled

Query: Item: FC(F)(F)c1cc(NCC#Cc2ccc(Br)cc2)ccn1
Result: Not fulfilled

Query: Item: COc1cccc(CCCNc2ccnc(C(F)(F)F)c2)c1
Result: Fulfilled

###

# method.summary: Inverse agonist activity at PqsR in Escherichia coli […] by cell-based reporter gene assay
result.type: IC50 (nM)
# value in nM; strip the unit string

Use these answered entries as a reference point.
1) CC(C)Oc1ccc(C#CCNc2ccnc(C(F)(F)F)c2)cc1Cl
129
2) FC(F)(F)c1cc(NCCCc2ccc(Cl)cc2)ccn1
149

Now examine the next entry.
Query: Look up IC50: Fc1ccc(CCCNc2ccnc(C(F)(F)F)c2)cc1
Result: 251

###

# system: Transcriptional regulator MvfR (Pseudomonas aeruginosa PA14)
# method.summary: Inverse agonist activity at PqsR in Pseudomonas aeruginosa assessed as reduction in pyocyanin production
Simple rule here: IC50 less than 3 µM is True, otherwise False.

Query: I wonder whether CC(C)Oc1ccc(C#CCNc2ccnc(C(F)(F)F)c2)cc1Cl has IC50 below 3 µM. Can you tell?
Result: True

Query: Item: CCOc1ccc(C#CCNc2ccnc(C(F)(F)F)c2)cc1Cl
Result: True

Query: Item: FC(F)(F)c1cc(NCC#Cc2ccc(Cl)cc2)ccn1
Result: False

Query: Item: CC(C)Oc1ccc(C#CCNc2ccnc(C(F)(F)F)c2)cc1
Result: True

Query: Item: COc1ccc(C#CCNc2ccnc(C(F)(F)F)c2)cc1F
Result: False

Query: Item: Fc1ccc(CCCNc2ccnc(C(F)(F)F)c2)cc1
Result: False
